The reported measurements were obtained from patent US20250090699A1.

In this section we review reported pIC50 values for a set of compounds.
measurement target: mouse FAP (Mus musculus)
Counter-ions that a name gives are not always drawn. Non-standard residues stand in square brackets, D forms with d. Residues, ends and D or L forms follow the SMILES beside them. *: point of attachment. X9 = O=C(O)CN1CCN(CC(=O)O)CCN([C@H](CCC(=O)*)C(=O)O)CCN(CC(=O)O)CC1; AEF = NCCOc1ccc(C[C@H](N)C(=O)O)cc1; NMeF = CN[C@@H](Cc1ccccc1)C(=O)O; Ahp(2) = CCCCC[C@H](N)C(=O)O
pIC50 field: float, defined as -log10 of concentration (mol/L).

{"columns": ["compound", "number"],
 "data": [
  ["CCCCC[C@@H]1NC(=O)[C@H](Cc2ccc(O)cc2)NC(=O)[C@H](Cc2ccccc2)N(C)C(=O)CNC(=O)[C@H](CCCCN)NC(=O)[C@H]2CCCN2C(=O)[C@H](CC(=O)O)NC(=O)[C@H](Cc2ccc(O)cc2)NC(=O)CNC(=O)[C@H](Cc2c[nH]c3ccccc23)NC1=O [Example A53, TFA salt] (cyclo([Ahp(2)]WGYD[dP]KG[NMeF]Y))", 8.89]
]}

Okay, next one:
Ask: Give recorded pIC50 with mouse FAP (Mus musculus) for the following compound: CCCCC[C@@H]1NC(=O)[C@H](Cc2ccc(OCCNC(=O)CC[C@H](C(=O)O)N3CCN(CC(=O)O)CCN(CC(=O)O)CCN(CC(=O)O)CC3)cc2)NC(=O)[C@H](Cc2ccccc2)N(C)C(=O)CNC(=O)CNC(=O)[C@H]2CCCN2C(=O)[C@H](CC(=O)O)NC(=O)[C@H](Cc2ccc(O)cc2)NC(=O)CNC(=O)[C@H](Cc2c[nH]c3ccccc23)NC1=O [Example B30] (cyclo([AEF](X9)[Ahp(2)]WGYD[dP]GG[NMeF]))
Result: 9.93

---

measurement target: mouse FAP (Mus musculus, UniProt P97321)
Construct: biotinylated His, Avi tag, mouse FAP (26-761, FAP-M82Q5); His; Avi tag (biotinylated); purchased AcroBiosystems FAP-M82Q5
Sequence (P97321 26-761): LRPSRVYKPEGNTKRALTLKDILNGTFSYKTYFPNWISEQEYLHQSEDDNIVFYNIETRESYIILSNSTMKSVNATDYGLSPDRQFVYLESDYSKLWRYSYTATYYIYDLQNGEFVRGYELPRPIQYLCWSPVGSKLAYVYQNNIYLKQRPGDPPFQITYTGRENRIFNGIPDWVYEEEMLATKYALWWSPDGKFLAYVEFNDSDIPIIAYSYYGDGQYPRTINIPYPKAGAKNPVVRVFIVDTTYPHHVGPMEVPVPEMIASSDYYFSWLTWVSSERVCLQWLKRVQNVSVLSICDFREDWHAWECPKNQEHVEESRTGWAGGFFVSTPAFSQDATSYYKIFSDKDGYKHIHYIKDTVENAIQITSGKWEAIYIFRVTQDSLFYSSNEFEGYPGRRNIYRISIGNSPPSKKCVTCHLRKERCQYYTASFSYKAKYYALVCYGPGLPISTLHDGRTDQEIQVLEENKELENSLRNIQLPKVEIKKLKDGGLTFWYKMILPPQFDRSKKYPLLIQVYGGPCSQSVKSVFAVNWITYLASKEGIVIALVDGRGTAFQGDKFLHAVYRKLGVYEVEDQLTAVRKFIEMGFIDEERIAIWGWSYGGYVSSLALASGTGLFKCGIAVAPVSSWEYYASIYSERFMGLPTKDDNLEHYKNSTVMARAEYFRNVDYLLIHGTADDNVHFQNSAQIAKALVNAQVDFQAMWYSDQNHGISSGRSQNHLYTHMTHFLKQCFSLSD
assay comment: Surface plasmon resonance (SPR) for peptide affinity, mouse FAP
Type: binding
Method: Peptide affinities (KD) were determined by SPR using a Biacore™ 8K device (Cytiva) towards the following proteins: biotinylated His, Avi tag, human FAP (26-760, FAP-H82Q6), biotinylated His, Avi tag, mouse FAP (26-761, FAP-M82Q5), His tag, human DPP4 (34-766, DP4-H82E3), all purchased from AcroBiosystems and His tag, mouse DPP4 (29-760, 954-SE) from R&D Systems. […]
Starred links: 1 amine or outer side, 2 acyl side, 3 side chain; linkers in the order of their positions; H or OH if unused. Non-standard residues stand in square brackets, D forms with d. Primed or numbered codes have the meaning given here. *: point of attachment. F(4amPEG2NHNODAGA-Ga) = gallium complex of 2,2'-(7-(1-(4-((S)-2-amino-2-carboxyethyl)phenyl)-15-carboxy-3,12-dioxo-5,8-dioxa-2,11-diazapentadecan-15-yl)-1,4,7-triazonane-1,4-diyl)diacetic acid (Phe with 4-aminomethyl-PEG2-NODAGA-Ga), O=C([O-])CN1CCN(CC(=O)[O-])CCN(C(CCC(=O)NCCOCCOCC(=O)NCc2ccc(C[C@H](N[*:1])C(=O)[*:2])cc2)C(=O)[O-])CC1.[Ga+3]; COpipzaa = 4-(carboxymethyl)piperazine-1-carbonyl, O=C(O)CN1CCN(C(=O)*)CC1; F(4amPEG2NHDOTA-Ga)″ = Phe with 4-aminomethyl-PEG2-NH-DOTA, Ga complex; hS(Pr) = O-propyl-L-homoserine, CCCOCC[C@H](N[*:1])C(=O)[*:2]; NMeF = CN[C@@H](Cc1ccccc1)C(=O)O; Ahp(2) = CCCCC[C@H](N)C(=O)O
In this section we review reported Kd values for a set of substances.

{"columns": ["substance", "Kd"],
 "data": [
  ["Gly-Gly-NMePhe-F(4amPeG2NHDOTA-Ga)-Ahp-Trp-Gly-K(COpipzaa)-asp-D-Pro (cyclo(GG[NMeF][F(4amPEG2NHDOTA-Ga)″][Ahp(2)]WGK(COpipzaa)D[dP]); also: Ga in DOTA chelate) [Example C46]", "< 0.016 nM"]
]}

Ask: Given Gly-Gly-NMePhe-F(4amPEG2NHNODAGA-Ga)-hS(Pr)-Trp-Gly-K(COpipzaa)-Asp-D-Pro (cyclo(GG[NMeF][F(4amPEG2NHNODAGA-Ga)][hS(Pr)]WGK(COpipzaa)D[dP]); also: Ga complex) [Example C40] , state its recorded Kd.
Result: < 0.02 nM
